Measured IC50, listed per entry for reference.
- Tested on: NFF, neonatal foreskin fibroblasts
- protocol-details: Cell survival assay (clonogenic survival, SRB), normal cells
- Type: cell-based, human
- study-conditions: Homo sapiens, Fibroblast, 24 h, Table 6; 24 hours with compound, further growth, SRB; read-out: IC50 (μM) NFF
- Procedure: The cytotoxicities of the compounds of the invention were determined by clonogenic survival of human cancer cells (MM96L, melanoma) and human normal cells (NFF, neonatal foreskin fibroblasts). […] The final readout involved staining with sulforhodamine B (SRB), a cost-effective method amenable to automation and high throughput analysis. […] Cell Survival Assay. […] Plates were then read at 564 nm on a VERSA max tunable microplate reader (Molecular Devices, Sunnyvale, Calif.).
Give the number; µM is assumed, so skip it.

CN(C)c1ccc(C(=O)N[C@@H](CSCCCC(=O)NO)C(=O)NC2CCCC2)cc1
2.6
CN(C)c1ccc(C(=O)N[C@@H](CSCCCC(=O)NO)C(=O)Nc2ccccc2-c2ccccc2)cc1
4.4
CN(C)c1ccc(C(=O)N[C@@H](CSCCCC(=O)NO)C(=O)Nc2cccc3c2CCCC3)cc1
2.2

Asked: State IC50 on NFF, neonatal foreskin fibroblasts. Entry: "CN(C)c1ccc(C(=O)N[C@@H](CSCCCC(=O)NO)C(=O)N(Cc2ccccc2)Cc2ccccc2)cc1"
Given back: 15.3

Asked: State IC50 on NFF, neonatal foreskin fibroblasts. Entry: "CN(C)c1ccc(C(=O)N[C@@H](CSCCCC(=O)NO)C(=O)Nc2cccc3cccnc23)cc1"
Given back: 3

Asked: State IC50 on NFF, neonatal foreskin fibroblasts. Entry: "CN(C)c1ccc(C(=O)N[C@@H](CSCCCC(=O)NO)C(=O)NCC2CCCCC2)cc1"
Given back: 3.6

Asked: State IC50 on NFF, neonatal foreskin fibroblasts. Entry: "Cc1ccnc(NC(=O)[C@H](CSCCCC(=O)NO)NC(=O)c2ccc(N(C)C)cc2)c1"
Given back: 11.2

Asked: State IC50 on NFF, neonatal foreskin fibroblasts. Entry: "COC(=O)c1ccc(NC(=O)[C@H](CSCCCC(=O)NO)NC(=O)c2ccc(N(C)C)cc2)cc1"
Given back: 2.8

Asked: State IC50 on NFF, neonatal foreskin fibroblasts. Entry: "CN(C)c1ccc(C(=O)N[C@@H](CSCCCC(=O)NO)C(=O)NC23CC4CC(CC(C4)C2)C3)cc1"
Given back: 7.1

Asked: State IC50 on NFF, neonatal foreskin fibroblasts. Entry: "CN(C)c1ccc(NC(=O)[C@H](CSCCCC(=O)NO)NC(=O)c2ccc(N(C)C)cc2)cc1"
Given back: 0.6

Asked: State IC50 on NFF, neonatal foreskin fibroblasts. Entry: "CN(C)c1ccc(C(=O)N[C@@H](CSCCCC(=O)NO)C(=O)Nc2ccccc2Cc2ccccc2)cc1"
Given back: 6.8

Asked: State IC50 on NFF, neonatal foreskin fibroblasts. Entry: "CN(C)c1ccc(C(=O)N[C@@H](CSCCCC(=O)NO)C(=O)Nc2cccnc2)cc1"
Given back: 11

Asked: State IC50 on NFF, neonatal foreskin fibroblasts. Entry: "CN(C)c1ccc(C(=O)N[C@@H](CSCCCC(=O)NO)C(=O)NCc2ccccn2)cc1"
Given back: 6.5

Asked: State IC50 on NFF, neonatal foreskin fibroblasts. Entry: "CN(C)c1ccc(C(=O)N[C@@H](CSCCCC(=O)NO)C(=O)Nc2cccc3cc4ccccc4cc23)cc1"
Given back: 2.2

Asked: State IC50 on NFF, neonatal foreskin fibroblasts. Entry: CN(C)c1ccc(C(=O)N[C@@H](CSCCCC(=O)NO)C(=O)NC2CCCc3ccccc32)cc1 (stereo partly drawn)
Given back: 2.2

Asked: State IC50 on NFF, neonatal foreskin fibroblasts. Entry: "CN(C)c1ccc(C(=O)N[C@@H](CSCCCC(=O)NO)C(=O)NCc2cccnc2)cc1"
Given back: 8.8

Asked: State IC50 on NFF, neonatal foreskin fibroblasts. Entry: "CN(C)c1ccc(C(=O)N[C@@H](CSCCCC(=O)NO)C(=O)NCc2ccccc2)cc1"
Given back: 0.35

Asked: State IC50 on NFF, neonatal foreskin fibroblasts. Entry: "CN(C)c1ccc(C(=O)N[C@@H](CSCCCC(=O)NO)C(=O)NCc2cccc3ccccc23)cc1"
Given back: 0.42
